- System: ABC-1
- Assay notes: relative viability (nuclei count vs DMSO), 5 days (fraction); higher = more cells survive
- Condition summary: first compound 0.6325 µM
Assign relative viability to each entry below.

q: Give the reported value of relative viability for this record: COCC1(CO)C(=O)C2CCN1CC2 (stereo not drawn) [PRIMA-1MET] + Cc1cc(Nc2cc(N3CCN(C)CC3)nc(Sc3ccc(NC(=O)C4CC4)cc3)n2)n[nH]1 [Tozasertib] (partner 0.1 µM)
a: 0.188

q: Give the reported value of relative viability for this record: COCC1(CO)C(=O)C2CCN1CC2 (stereo not drawn) [PRIMA-1MET] + COc1cc2c(Oc3ccc(NC(=O)C4(C(=O)Nc5ccc(F)cc5)CC4)cc3F)ccnc2cc1OCCCN1CCOCC1 [Foretinib] (partner 0.25 µM)
a: 0.937

q: Give the reported value of relative viability for this record: COCC1(CO)C(=O)C2CCN1CC2 (stereo not drawn) [PRIMA-1MET] + CC(C)C[C@H](NC(=O)[C@H](Cc1ccccc1)NC(=O)c1cnccn1)B(O)O [Bortezomib] (partner 0.002 µM)
a: 0.278

----------
- System: UMC-11
- Assay notes: relative viability (nuclei count vs DMSO), 5 days (fraction); higher = more cells survive
- Condition summary: first compound 0.8 µM
Field 'label' (enum: class 1 / class 0). Set to class 1 when relative viability is strictly under 0.6; else class 0.

q: Hello, I'm reviewing records and need to know if relative viability of O=c1cc(-c2cccc3c2Sc2ccccc2S3)oc(N2CCOCC2)c1 + CC(=O)c1c(C)c2cnc(Nc3ccc(N4CCNCC4)cn3)nc2n(C2CCCC2)c1=O [Palbociclib] (partner 0.5 µM) is below 0.6. Could you check?
a: class 1

q: Hello, I'm reviewing records and need to know if relative viability of O=c1cc(-c2cccc3c2Sc2ccccc2S3)oc(N2CCOCC2)c1 + CC(=O)Nc1cccc(-n2c(=O)n(C3CC3)c(=O)c3c(Nc4ccc(I)cc4F)n(C)c(=O)c(C)c32)c1 [Trametinib] (partner 0.02 µM) is below 0.6. Could you check?
a: class 0

q: Hello, I'm reviewing records and need to know if relative viability of O=c1cc(-c2cccc3c2Sc2ccccc2S3)oc(N2CCOCC2)c1 + CC(C)C[C@H](NC(=O)[C@H](Cc1ccccc1)NC(=O)c1cnccn1)B(O)O [Bortezomib] (partner 0.002 µM) is below 0.6. Could you check?
a: class 0

q: Hello, I'm reviewing records and need to know if relative viability of O=c1cc(-c2cccc3c2Sc2ccccc2S3)oc(N2CCOCC2)c1 + N=C(N)NC(=N)NCCc1ccccc1 [Phenformin] (partner 250 µM) is below 0.6. Could you check?
a: class 1

q: Hello, I'm reviewing records and need to know if relative viability of COc1nc(C)cnc1NS(=O)(=O)c1cccnc1-c1ccc(-c2nnco2)cc1 [Zibotentan] + Nc1ncn([C@H]2C[C@H](O)[C@@H](CO)O2)c(=O)n1 [Decitabine] (partner 2 µM) is below 0.6. Could you check?
a: class 0

q: Hello, I'm reviewing records and need to know if relative viability of COc1nc(C)cnc1NS(=O)(=O)c1cccnc1-c1ccc(-c2nnco2)cc1 [Zibotentan] + COc1cccc2cc(-c3nc([C@H]4CC[C@H](C(=O)O)CC4)n4ncnc(N)c34)[nH]c12 [OSI-027] (partner 0.5 µM) is below 0.6. Could you check?
a: class 1

q: Hello, I'm reviewing records and need to know if relative viability of COc1nc(C)cnc1NS(=O)(=O)c1cccnc1-c1ccc(-c2nnco2)cc1 [Zibotentan] + C[C@@H](Oc1cc(-c2cnn(C3CCNCC3)c2)cnc1N)c1c(Cl)ccc(F)c1Cl [Crizotinib] (partner 1 µM) is below 0.6. Could you check?
a: class 0

----------
- Test system: PC-14
- Assay notes: relative viability (nuclei count vs DMSO), 5 days (fraction); higher = more cells survive
- Condition summary: first compound 0.1 µM
Assign relative viability to each entry below.
Please reply with the number alone, leaving off any unit.

q: Give the reported value of relative viability for this record: CCN(CC)CCCCNc1ncc2cc(-c3cc(OC)cc(OC)c3)c(NC(=O)NC(C)(C)C)nc2n1 + CC1(C)CCC(c2ccc(Cl)cc2)=C(CN2CCN(c3ccc(C(=O)NS(=O)(=O)c4ccc(N[C@H](CCN5CCOCC5)CSc5ccccc5)c(S(=O)(=O)C(F)(F)F)c4)cc3)CC2)C1 [Navitoclax] (partner 0.5 µM)
a: 1.15

q: Give the reported value of relative viability for this record: O=c1cc(N2CCOCC2)oc2c(-c3cccc4c3sc3ccccc34)cccc12 + CC1(C)CCC(c2ccc(Cl)cc2)=C(CN2CCN(c3ccc(C(=O)NS(=O)(=O)c4ccc(N[C@H](CCN5CCOCC5)CSc5ccccc5)c(S(=O)(=O)C(F)(F)F)c4)cc3)CC2)C1 [Navitoclax] (partner 0.5 µM)
a: 1.08

q: Give the reported value of relative viability for this record: O=c1cc(N2CCOCC2)oc2c(-c3cccc4c3sc3ccccc34)cccc12 + Cc1nc(Nc2ncc(C(=O)Nc3c(C)cccc3Cl)s2)cc(N2CCN(CCO)CC2)n1 [Dasatinib] (partner 0.075 µM)
a: 0.276

q: Give the reported value of relative viability for this record: O=c1cc(N2CCOCC2)oc2c(-c3cccc4c3sc3ccccc34)cccc12 + C[C@@H](Oc1cc(-c2cnn(C3CCNCC3)c2)cnc1N)c1c(Cl)ccc(F)c1Cl [Crizotinib] (partner 1 µM)
a: 0.85

----------
Assign relative viability to each entry below.
- Tested on: NCI-H441
- Assay notes: relative viability (nuclei count vs DMSO), 5 days (fraction); higher = more cells survive
- Condition summary: first compound 0.01 µM
Please reply with the number alone, leaving off any unit.

q: Give the reported value of relative viability for this record: CCN(CC)CCCCNc1ncc2cc(-c3cc(OC)cc(OC)c3)c(NC(=O)NC(C)(C)C)nc2n1 + O=C(CCCCCCC(=O)Nc1ccccc1)NO [Vorinostat] (partner 1 µM)
a: 0.863

q: Give the reported value of relative viability for this record: CCN(CC)CCCCNc1ncc2cc(-c3cc(OC)cc(OC)c3)c(NC(=O)NC(C)(C)C)nc2n1 + Cc1nc(Nc2ncc(C(=O)Nc3c(C)cccc3Cl)s2)cc(N2CCN(CCO)CC2)n1 [Dasatinib] (partner 0.075 µM)
a: 0.68

q: Give the reported value of relative viability for this record: O=c1cc(N2CCOCC2)oc2c(-c3cccc4c3sc3ccccc34)cccc12 + COc1cccc2cc(-c3nc([C@H]4CC[C@H](C(=O)O)CC4)n4ncnc(N)c34)[nH]c12 [OSI-027] (partner 0.5 µM)
a: 0.679

q: Give the reported value of relative viability for this record: O=c1cc(N2CCOCC2)oc2c(-c3cccc4c3sc3ccccc34)cccc12 + CC(=O)Nc1cccc(-n2c(=O)n(C3CC3)c(=O)c3c(Nc4ccc(I)cc4F)n(C)c(=O)c(C)c32)c1 [Trametinib] (partner 0.02 µM)
a: 0.513

q: Give the reported value of relative viability for this record: O=c1cc(N2CCOCC2)oc2c(-c3cccc4c3sc3ccccc34)cccc12 + C[C@]1(O)C[C@@H](c2nc(-c3ccc4ccc(-c5ccccc5)nc4c3)c3c(N)nccn32)C1 [Linsitinib] (partner 1 µM)
a: 0.53

----------
- System: NCI-H647
- Assay notes: relative viability (nuclei count vs DMSO), 5 days (fraction); higher = more cells survive
- Condition summary: first compound 0.2 µM
Measured quantity: relative viability
Please reply with the number alone, leaving off any unit.

q: Give the reported value of relative viability for this record: COCC1(CO)C(=O)C2CCN1CC2 (stereo not given) [PRIMA-1MET] + Nc1ncn([C@H]2C[C@H](O)[C@@H](CO)O2)c(=O)n1 [Decitabine] (partner 2 µM)
a: 0.403

q: Give the reported value of relative viability for this record: COCC1(CO)C(=O)C2CCN1CC2 (stereo not given) [PRIMA-1MET] + N=C(N)NC(=N)NCCc1ccccc1 [Phenformin] (partner 250 µM)
a: 0.405

q: Give the reported value of relative viability for this record: COCC1(CO)C(=O)C2CCN1CC2 (stereo not given) [PRIMA-1MET] + Nc1nc2[nH]cc(CCc3ccc(C(=O)N[C@@H](CCC(=O)O)C(=O)O)cc3)c2c(=O)[nH]1 [Pemetrexed] (partner 0.2 µM)
a: 0.19

q: Give the reported value of relative viability for this record: COCC1(CO)C(=O)C2CCN1CC2 (stereo not given) [PRIMA-1MET] + Cc1cc(Nc2cc(N3CCN(C)CC3)nc(Sc3ccc(NC(=O)C4CC4)cc3)n2)n[nH]1 [Tozasertib] (partner 0.1 µM)
a: 0.615

q: Give the reported value of relative viability for this record: COCC1(CO)C(=O)C2CCN1CC2 (stereo not given) [PRIMA-1MET] + Cc1nc(Nc2ncc(C(=O)Nc3c(C)cccc3Cl)s2)cc(N2CCN(CCO)CC2)n1 [Dasatinib] (partner 0.075 µM)
a: 0.165

----------
- Tested on: HCC-827
- Assay notes: relative viability (nuclei count vs DMSO), 5 days (fraction); higher = more cells survive
- Condition summary: first compound 0.6325 µM
Measured quantity: relative viability

q: Give the reported value of relative viability for this record: COCC1(CO)C(=O)C2CCN1CC2 (stereo unspecified) [PRIMA-1MET] + CC1(C)CCC(c2ccc(Cl)cc2)=C(CN2CCN(c3ccc(C(=O)NS(=O)(=O)c4ccc(N[C@H](CCN5CCOCC5)CSc5ccccc5)c(S(=O)(=O)C(F)(F)F)c4)cc3)CC2)C1 [Navitoclax] (partner 0.5 µM)
a: 0.9

q: Give the reported value of relative viability for this record: COCC1(CO)C(=O)C2CCN1CC2 (stereo unspecified) [PRIMA-1MET] + O=C(c1cc(Cc2n[nH]c(=O)c3ccccc23)ccc1F)N1CCN(C(=O)C2CC2)CC1 [Olaparib] (partner 8 µM)
a: 0.675

q: Give the reported value of relative viability for this record: COCC1(CO)C(=O)C2CCN1CC2 (stereo unspecified) [PRIMA-1MET] + COc1cc2c(Oc3ccc(NC(=O)C4(C(=O)Nc5ccc(F)cc5)CC4)cc3F)ccnc2cc1OCCCN1CCOCC1 [Foretinib] (partner 0.25 µM)
a: 0.976

q: Give the reported value of relative viability for this record: COCC1(CO)C(=O)C2CCN1CC2 (stereo unspecified) [PRIMA-1MET] + NC(=O)Nc1cc(-c2cccc(F)c2)sc1C(=O)N[C@H]1CCCNC1 [AZD7762] (partner 0.2 µM)
a: 0.224

q: Give the reported value of relative viability for this record: COCC1(CO)C(=O)C2CCN1CC2 (stereo unspecified) [PRIMA-1MET] + Nc1ncn([C@H]2C[C@H](O)[C@@H](CO)O2)c(=O)n1 [Decitabine] (partner 2 µM)
a: 0.157

q: Give the reported value of relative viability for this record: COCC1(CO)C(=O)C2CCN1CC2 (stereo unspecified) [PRIMA-1MET] + CC(C)C[C@H](NC(=O)[C@H](Cc1ccccc1)NC(=O)c1cnccn1)B(O)O [Bortezomib] (partner 0.002 µM)
a: 1.01
